tested on: Klebsiella pneumoniae D 11750/08; assay: Antibacterial microdilution broth method, K. pneumoniae; settings: K. pneumoniae D 11750/08; 48 h incubation
Quantity Name: MIC KP 48 h

# query: MIC KP 48 h | item O=C(O)c1ccc(N=Cc2cccc(Cl)c2O)cc1 [1m] | system: Klebsiella pneumoniae D 11750/08
>500 µM

Same lookup for O=C(O)c1ccc(N=Cc2cc(I)ccc2O)cc1 [1e] , please.
>250 µM

Same lookup for O=C(O)c1ccc(NCc2ccccc2O)cc1 [1u, 4-[(2-Hydroxybenzyl)amino]benzoic acid] , please.
>500 µM

Source of measurements: paper PMC7023430
